cGMP response rel. to 1 uM CNP22; 10 nM peptide, NIH3T3 cells for assorted binders
Target: T1, NPR-B (natriuretic peptide receptor B), murine, expressed endogenously on NIH3T3 cells (murine, UniProt Q6VVW5 17-1047)
T1 sequence (looked up): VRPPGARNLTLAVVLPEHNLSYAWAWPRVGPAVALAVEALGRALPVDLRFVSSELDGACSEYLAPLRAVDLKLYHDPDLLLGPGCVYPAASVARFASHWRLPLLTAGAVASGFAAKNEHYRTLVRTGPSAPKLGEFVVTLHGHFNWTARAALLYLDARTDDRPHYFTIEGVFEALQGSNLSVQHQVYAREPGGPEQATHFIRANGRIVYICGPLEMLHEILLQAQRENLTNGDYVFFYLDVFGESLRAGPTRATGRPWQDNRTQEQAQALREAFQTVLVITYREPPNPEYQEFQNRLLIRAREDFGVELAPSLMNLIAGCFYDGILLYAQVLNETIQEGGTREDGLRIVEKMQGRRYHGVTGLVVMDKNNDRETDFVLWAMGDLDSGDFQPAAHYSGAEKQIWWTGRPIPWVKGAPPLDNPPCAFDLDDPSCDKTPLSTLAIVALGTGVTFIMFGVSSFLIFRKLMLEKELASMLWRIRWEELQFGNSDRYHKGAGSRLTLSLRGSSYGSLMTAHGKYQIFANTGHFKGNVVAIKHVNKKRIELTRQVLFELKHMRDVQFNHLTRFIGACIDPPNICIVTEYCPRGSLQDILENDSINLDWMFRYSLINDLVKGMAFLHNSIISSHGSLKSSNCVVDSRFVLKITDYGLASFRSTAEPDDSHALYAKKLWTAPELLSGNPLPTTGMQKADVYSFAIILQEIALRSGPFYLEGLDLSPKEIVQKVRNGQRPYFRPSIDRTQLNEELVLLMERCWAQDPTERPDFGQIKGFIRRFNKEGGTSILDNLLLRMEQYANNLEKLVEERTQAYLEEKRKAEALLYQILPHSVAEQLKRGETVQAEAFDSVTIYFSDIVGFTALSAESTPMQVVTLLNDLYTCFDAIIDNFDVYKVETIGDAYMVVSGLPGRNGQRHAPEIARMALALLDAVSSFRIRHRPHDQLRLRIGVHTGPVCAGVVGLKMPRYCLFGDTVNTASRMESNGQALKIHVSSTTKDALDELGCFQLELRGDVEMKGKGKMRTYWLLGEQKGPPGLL
Assay: cell-based or functional assay
Where no end group is shown, it is not given here. PEO12 = PEO12, 0.6 kDa, monodispersed; PEO24 = PEO24, 1.2 kDa, monodispersed

Reference set (2 entries):
- Binder: "PEO12-GANRRGLSRGCFGLKLDRIGSMSGLGC (ends and bridges not checked) [PEO12-GANRR-CNP22(K4R)]"
  Result: "40 rel. to 1 uM CNP22 (100)"
- Binder: "PEO12-ERGLSRGCFGLKLDRIGSMSGLGC (ends and bridges not checked) [PEO12-ER-CNP22, K4R]"
  Result: "20 rel. to 1 uM CNP22 (100)"

API: the following record is the query input.
Task item: May I ask what cGMP response rel. to 1 uM CNP22; 10 nM peptide, NIH3T3 cells has been recorded for PEO24-RGLSRGCFGLKLDRIGSMSGLGC (ends and bridges not checked) [PEO24-R-CNP22, K4R] ?
Reply: 15 rel. to 1 uM CNP22 (100)
